target: T1, 6L; test: flow cytometry on peptide-pulsed T2 cells, scFv 100 nM
T1 construct: also called HLA-A2 / point-mutant NY-ESO peptide 6L complex on T2 cells
ENDPOINT LABEL: standardized gMFI
Number only, please.

Before answering, review these 3 worked examples.
{"BINDER": "NYA-1154 (scFv) scFv: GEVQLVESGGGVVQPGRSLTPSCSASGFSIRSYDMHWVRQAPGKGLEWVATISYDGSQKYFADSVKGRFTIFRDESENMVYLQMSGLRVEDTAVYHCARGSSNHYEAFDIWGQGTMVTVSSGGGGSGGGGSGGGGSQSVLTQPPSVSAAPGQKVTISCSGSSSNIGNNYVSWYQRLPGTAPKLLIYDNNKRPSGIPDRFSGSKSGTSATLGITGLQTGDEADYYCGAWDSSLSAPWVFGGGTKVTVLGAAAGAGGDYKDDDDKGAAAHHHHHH", "REPORTED RESULT": 9.36}
{"BINDER": "NYA-2060 (scFv, also called NYA-2060 tag adduct) scFv: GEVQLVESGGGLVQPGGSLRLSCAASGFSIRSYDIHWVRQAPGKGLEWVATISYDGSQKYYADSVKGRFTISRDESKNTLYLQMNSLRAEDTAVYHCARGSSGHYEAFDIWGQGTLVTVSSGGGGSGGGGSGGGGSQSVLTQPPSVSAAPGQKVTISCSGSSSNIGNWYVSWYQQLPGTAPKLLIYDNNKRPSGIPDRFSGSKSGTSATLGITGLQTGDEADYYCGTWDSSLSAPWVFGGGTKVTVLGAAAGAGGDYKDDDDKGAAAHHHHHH", "REPORTED RESULT": 7.94}
{"BINDER": "NYA-2027 (scFv) scFv: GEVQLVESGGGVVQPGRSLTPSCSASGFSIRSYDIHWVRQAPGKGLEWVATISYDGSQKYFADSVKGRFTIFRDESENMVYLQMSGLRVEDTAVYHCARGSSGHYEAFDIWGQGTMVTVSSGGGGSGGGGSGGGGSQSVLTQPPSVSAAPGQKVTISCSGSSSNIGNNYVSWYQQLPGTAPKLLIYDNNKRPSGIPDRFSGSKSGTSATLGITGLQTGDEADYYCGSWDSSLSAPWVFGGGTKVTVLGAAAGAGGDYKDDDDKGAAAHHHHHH", "REPORTED RESULT": 7.85}

Challenge: Which standardized gMFI value belongs to NYA-0001 (scFv, also called NYA-0001 tag adduct; NY-R119 expressed in a cultured mammalian cell) scFv: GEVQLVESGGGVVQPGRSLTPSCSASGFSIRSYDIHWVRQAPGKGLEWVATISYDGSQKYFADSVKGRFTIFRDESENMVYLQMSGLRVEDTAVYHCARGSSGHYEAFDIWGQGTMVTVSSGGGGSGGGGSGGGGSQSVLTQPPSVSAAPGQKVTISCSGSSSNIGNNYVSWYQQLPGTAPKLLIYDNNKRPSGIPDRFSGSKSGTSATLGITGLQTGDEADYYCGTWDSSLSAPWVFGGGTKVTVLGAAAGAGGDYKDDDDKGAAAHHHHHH ?
Response given: 7.97

Challenge: Which standardized gMFI value belongs to NYA-2044 (scFv, also called NYA-2044 tag adduct) scFv: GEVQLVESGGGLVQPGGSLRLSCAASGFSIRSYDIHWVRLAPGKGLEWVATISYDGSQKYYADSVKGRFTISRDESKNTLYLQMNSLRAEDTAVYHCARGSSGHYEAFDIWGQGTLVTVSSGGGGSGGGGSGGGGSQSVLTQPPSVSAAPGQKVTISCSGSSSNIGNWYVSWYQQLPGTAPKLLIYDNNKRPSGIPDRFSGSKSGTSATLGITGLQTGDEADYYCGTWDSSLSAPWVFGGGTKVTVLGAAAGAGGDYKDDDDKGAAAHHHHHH ?
Response given: 13.4

Challenge: Which standardized gMFI value belongs to NYA-2143 (scFv) scFv: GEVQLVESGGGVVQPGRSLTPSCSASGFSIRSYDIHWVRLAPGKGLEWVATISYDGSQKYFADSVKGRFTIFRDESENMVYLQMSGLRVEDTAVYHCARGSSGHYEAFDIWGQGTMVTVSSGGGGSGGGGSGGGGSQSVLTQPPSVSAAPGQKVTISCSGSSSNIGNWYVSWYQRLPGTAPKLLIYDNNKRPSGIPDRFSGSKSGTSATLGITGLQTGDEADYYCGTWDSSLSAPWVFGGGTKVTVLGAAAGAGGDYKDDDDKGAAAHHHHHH ?
Response given: 12.9
